# Measurement Target: EDG-3 (Homo sapiens, UniProt Q99500)
# Sequence (Q99500 whole entry): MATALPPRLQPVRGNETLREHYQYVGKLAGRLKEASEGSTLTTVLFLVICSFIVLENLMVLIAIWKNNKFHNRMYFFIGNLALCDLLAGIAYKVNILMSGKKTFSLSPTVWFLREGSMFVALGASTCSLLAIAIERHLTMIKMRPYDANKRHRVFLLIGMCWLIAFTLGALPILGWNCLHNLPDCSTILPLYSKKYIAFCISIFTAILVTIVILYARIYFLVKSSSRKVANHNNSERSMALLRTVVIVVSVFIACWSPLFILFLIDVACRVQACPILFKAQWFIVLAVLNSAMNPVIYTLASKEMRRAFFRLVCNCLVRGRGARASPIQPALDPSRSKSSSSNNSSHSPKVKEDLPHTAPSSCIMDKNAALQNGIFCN
# Procedure Summary: Antagonistic activity for EDG-3 (S1P-induced intracellular calcium, CHO cells)
# Condition Details: CHO cells expressing EDG-3, S1P 100 nM
pIC50: −log10 of the molar value.
Result Type: pIC50

# Entry Smiles, Reading
rows = [
    ("Cc1nn(C)c2nc(NNC(=O)Nc3c(Cl)cncc3Cl)cc(C(C)C)c12", "< 5.00"),
]
